Recorded values, source patent US7875647B2.

Biological target: Cannabinoid-1 receptor (CB1R) (Rattus norvegicus, UniProt P20272)
Construct: The tissue obtained from the brain of SD rats was homogenized; from tissue; host or cells: brain of SD rats (membrane pellet of the homogenate)
Sequence (P20272 whole entry): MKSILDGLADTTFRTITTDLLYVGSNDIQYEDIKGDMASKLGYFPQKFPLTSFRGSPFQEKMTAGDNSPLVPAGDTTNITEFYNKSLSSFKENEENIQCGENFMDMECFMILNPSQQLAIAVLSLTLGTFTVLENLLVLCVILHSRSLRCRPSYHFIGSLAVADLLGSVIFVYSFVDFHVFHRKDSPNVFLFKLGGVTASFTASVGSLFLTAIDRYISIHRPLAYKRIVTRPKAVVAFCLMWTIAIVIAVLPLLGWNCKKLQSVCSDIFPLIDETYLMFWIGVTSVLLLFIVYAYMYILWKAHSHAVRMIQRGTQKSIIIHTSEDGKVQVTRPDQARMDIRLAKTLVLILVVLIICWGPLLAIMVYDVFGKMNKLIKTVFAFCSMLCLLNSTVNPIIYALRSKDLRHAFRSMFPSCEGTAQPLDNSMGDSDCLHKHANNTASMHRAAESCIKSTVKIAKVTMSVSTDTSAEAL
Test: Cannabinoid-1 receptor (CB1R) binding affinity assay ([3H]CP-55940, rat CB-1 receptor binding protocol)
Details: brain tissue of SD rats, [3H]CP-55940, 30° C. 60 min; read-out: IC50
Please provide measured IC50 for the entries that follow.
Give bare numbers, in nM.

Some solved cases for reference:
Provide one value: measured IC50 of C=C(C)c1c(-c2nnc(C(C)(C)C)s2)nn(-c2ccc(Cl)cc2Cl)c1-c1ccc(Br)cc1 [Example 535]
12

Provide one value: measured IC50 of CCc1c(-c2nnc(C3(c4ccc(Cl)cc4)CC3)s2)nn(-c2ccc(Cl)cc2Cl)c1-c1ccc(Br)cc1 [Example 477]
4.1

Provide one value: measured IC50 of Cc1c(-c2nnc(C(C)(C)c3ccccc3)s2)nn(-c2ccc(Cl)cc2Cl)c1-c1ccc(Cl)cc1 [Example 401]
6.9

Provide one value: measured IC50 of Cc1c(-c2nnc(C3(Cc4ccccc4)CC3)o2)nn(-c2ccc(Cl)cc2Cl)c1-c1ccc(Cl)cc1 [Example 270]
15

Provide one value: measured IC50 of CC(C)(C)c1nnc(-c2nn(-c3ccc(Cl)cc3Cl)c(-c3ccc(Cl)cc3)c2CN2CCOCC2)o1 [Example 293]
135

Provide one value: measured IC50 of CCc1c(-c2nnc(C3(C)CC3)s2)nn(-c2ccc(Cl)cc2Cl)c1-c1ccc(Cl)cc1 [Example 484]
31.5

Provide one value: measured IC50 of CCCc1c(-c2nnc(C3(c4ccc(Cl)cc4)CC3)o2)nn(-c2ccc(Cl)cc2Cl)c1-c1ccc(Cl)cc1 [Example 186]
12.1

Then there is this compound:
Provide one value: measured IC50 of COC(c1ccccc1)(c1nnc(-c2nn(-c3ccc(Cl)cc3Cl)c(-c3ccc(Cl)cc3)c2C)o1)C(F)(F)F (centres unmarked) [Example 251]
12.8
